Ref: ChEMBL document CHEMBL3045442

- System: Blumeria graminis
- Test Name: Fungicidal activity against Blumeria graminis infected barley assessed as reduction in powdery mildew disease at 1000 mg/l applied for 1 day prior to infection relative to untreated control
- Assay type: functional
- Set-up: scale not given: the % may be the effect or the level left
Recorded Activity for the following compounds
Write down the numeric answer in % and omit the unit.

{"columns": ["Compound Structure String", "Measured"],
 "data": [
  ["O=C(/C=C/CCCC/C=C/c1ccc2c(c1)OCO2)N1CCCCC1", 0],
  ["COc1cc(/C=C/C(=O)N2CCC=CC2=O)cc(OC)c1OC", 0],
  ["O=C(CCCC/C=C/c1ccc2c(c1)OCO2)N1CCCCC1", 60]
]}

Record summary for O=C(/C=C/C=C/c1ccc2c(c1)OCO2)N1CCCCC1 : reported Activity = 0

Record summary for C=CCc1ccc(O)c(OC)c1 : reported Activity = 5

----------
- Tested on: Pyricularia grisea
- Test Name: Fungicidal activity against Magnaporthe grisea infected rice assessed as reduction in rice blast disease at 500 mg/l applied for 1 day prior to infection relative to untreated control
- Assay type: functional
- Set-up: scale not given: the % may be the effect or the level left
Result Type: Activity (%)
Write down the numeric answer in % and omit the unit.

Consider the reported Activity for these compounds:
{"columns": ["Compound Structure String", "Target System", "Measured"],
 "data": [
  ["COc1cc(/C=C/C(=O)N2CCC=CC2=O)cc(OC)c1OC", "Pyricularia grisea", 0],
  ["O=C(/C=C/CCCC/C=C/c1ccc2c(c1)OCO2)N1CCCCC1", "Pyricularia grisea", 51],
  ["C=CCc1ccc(O)c(OC)c1", "Pyricularia grisea", 0],
  ["O=C(/C=C/C=C/c1ccc2c(c1)OCO2)N1CCCCC1", "Pyricularia grisea", 0]
]}

Could you now look at the following compound, please?
Record summary for O=C(CCCC/C=C/c1ccc2c(c1)OCO2)N1CCCCC1 : reported Activity = 0

----------
- Test system: Puccinia recondita
- Test Name: Fungicidal activity against Puccinia recondita infected wheat assessed as reduction in wheat leaf rust disease at 1000 mg/l applied for 1 day prior to infection relative to untreated control
- Assay type: functional
- Set-up: scale not given: the % may be the effect or the level left
Result Type: Activity
Answer with the value and then the unit.

Consider the reported Activity for these compounds:
{"columns": ["Compound Structure String", "Activity"],
 "data": [
  ["O=C(/C=C/CCCC/C=C/c1ccc2c(c1)OCO2)N1CCCCC1", "100%"],
  ["COc1cc(/C=C/C(=O)N2CCC=CC2=O)cc(OC)c1OC", "0%"],
  ["C=CCc1ccc(O)c(OC)c1", "0%"],
  ["O=C(CCCC/C=C/c1ccc2c(c1)OCO2)N1CCCCC1", "0%"]
]}

Could you now look at the following compound, please?
Record summary for O=C(/C=C/C=C/c1ccc2c(c1)OCO2)N1CCCCC1 : reported Activity = 0%

----------
Recorded Activity for the following compounds
- Tested on: Phytophthora infestans
- Test Name: Fungicidal activity against Phytophthora infestans infected tomato assessed as reduction in tomato late blight disease at 1000 mg/l applied for 1 day prior to infection relative to untreated control
- Assay type: functional
- Parameters: scale not given: the % may be the effect or the level left

{"columns": ["Compound", "Activity"],
 "data": [
  ["O=C(/C=C/C=C/c1ccc2c(c1)OCO2)N1CCCCC1 [PIPERINE]", "0%"],
  ["O=C(/C=C/CCCC/C=C/c1ccc2c(c1)OCO2)N1CCCCC1 [PIPERNONALINE]", "91%"],
  ["COc1cc(/C=C/C(=O)N2CCC=CC2=O)cc(OC)c1OC [PIPLARTINE]", "0%"],
  ["O=C(CCCC/C=C/c1ccc2c(c1)OCO2)N1CCCCC1 [PIPERETTINE]", "0%"]
]}

Could you now look at the following compound, please?
C=CCc1ccc(O)c(OC)c1 [EUGENOL] on Phytophthora infestans gives Activity = 0%
